Where do these numbers come from? They come from the supplement of paper PMC10567573.

B1: ZNF511 (parent)
chain: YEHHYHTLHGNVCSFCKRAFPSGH

# Variants of: B1
# Test description: protein stability index of a GFP-peptide fusion (GPS, HEK-293T) (PSI 1-6); higher = more stable;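 also: lentivirally expressed fusions sorted by FACS into six bins by GFP to DsRed ratio, PSI derived from sequencing read proportions per bin multiplied by bin number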
# Condition info: c terminus: a fixed tail appended
Readout: protein stability index
Just the number.

Polymer sequence | Readout | Assay value
YEHHYHTLHGNVCSFCKRAFPSKH [G23K] | protein stability index | 2.01
YEHHYHTLAGNVCSFCKRAFPSGH [H9A] | protein stability index | 1.93

Attention now shifts to the item below.
Query: So what does the record say about protein stability index for YEHHYHTHHGNVCSFCKRAFPSGH [L8H] ?
Response: 2.92
